# assay-text: Zinc precipitation of GLP-1 compounds (A280 of supernatant)
# Format: physicochemical
# test-settings: Zn/GLP-1 molar ratio 0.3, 100 μM GLP-1 compound, HEPES pH 7.4, 22° C., 18 hours
# Protocol: Individual GLP-1 compounds were prepared as described in Examples 1 or 2. 3 mg of an individual lyophilized GLP molecule was dissolved in 3 ml 0.1 M HEPES buffer pH 10.5. The pH of the resulting solution was then adjusted to between 10.0 and 10.5 with 0.2 N NaOH. The solution was stirred at ambient temperature for 30 minutes and the solution was then adjusted to a pH of 7.4 with 0.2 N HCl. […]
Where no end group is shown, it is not given here.
quantity-kind: A280

Solved entries (count: 7):
{"substance": "Val^8-Glu^22-GLP-1(7-37)OH (HVEGTFTSDVSSYLEEQAAKEFIAWLVKGRG)", "quantity-kind": "A280", "reported-measurement": 0.291}
{"substance": "Val^8-Ala^22-GLP-1(7-37)OH (HVEGTFTSDVSSYLEAQAAKEFIAWLVKGRG)", "quantity-kind": "A280", "reported-measurement": 0.202}
{"substance": "Val^8-Asp^22-GLP-1(7-37)OH (HVEGTFTSDVSSYLEDQAAKEFIAWLVKGRG)", "quantity-kind": "A280", "reported-measurement": 0.2785}
{"substance": "Val^8-Lys^22-GLP-1(7-37)OH (HVEGTFTSDVSSYLEKQAAKEFIAWLVKGRG)", "quantity-kind": "A280", "reported-measurement": 0.0825}
{"substance": "Gln^22-GLP-1(7-37)OH (HAEGTFTSDVSSYLEQQAAKEFIAWLVKGRG)", "quantity-kind": "A280", "reported-measurement": 0.390}
{"substance": "Val^8-Ser^22-GLP-1(7-37)OH (HVEGTFTSDVSSYLESQAAKEFIAWLVKGRG)", "quantity-kind": "A280", "reported-measurement": 0.2805}
{"substance": "Val^8-Pro^22-GLP-1(7-37)OH (HVEGTFTSDVSSYLEPQAAKEFIAWLVKGRG)", "quantity-kind": "A280", "reported-measurement": 0.2455}

Then this substance:
Data request: Query: A280; subject: Gly^8-GLP-1(7-37)OH (HGEGTFTSDVSSYLEGQAAKEFIAWLVKGRG-OH; UniProt P01275 98-128, looked up, variant A8G) [reference compound]
Data returned: 0.166

====

# assay-text: Zinc precipitation of GLP-1 compounds (A280 of supernatant)
# Type: physicochemical
# test-settings: Zn/GLP-1 molar ratio 3, 100 μM GLP-1 compound, HEPES pH 7.4, 22° C., 18 hours
quantity-kind: A280
Enter the number alone.

Solved entries (count: 3):
{"substance": "Val^8-Pro^22-GLP-1(7-37)OH (HVEGTFTSDVSSYLEPQAAKEFIAWLVKGRG)", "reported-measurement": 0.1615}
{"substance": "Val^8-Glu^22-GLP-1(7-37)OH (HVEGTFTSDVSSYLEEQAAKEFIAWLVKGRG)", "reported-measurement": 0.052}
{"substance": "Val^8-Ala^22-GLP-1(7-37)OH (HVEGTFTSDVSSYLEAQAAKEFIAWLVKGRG)", "reported-measurement": 0.104}

Then this substance:
Data request: Query: A280; subject: Val^8-Asp^22-GLP-1(7-37)OH (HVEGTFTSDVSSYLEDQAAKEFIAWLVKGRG)
Data returned: 0.1485
